# System: cultured human mast cells (CHMC)
# runDescription: CHMC low cell density IgE activation: tryptase assay
# Format: cell-based
# assayConditions: low cell density, IgE activation, 3 pt; read-out: LD Tryptase, CHMC, IgE, 3 pt
Listed compounds paired with reported IC50

givenSmiles | IC50
Cc1nc2cc(Nc3ncc(F)c(Nc4ccc5c(n4)NC(=O)C(C)(C)O5)n3)ccc2n1CCCO | < 10 µM
Cn1c(N2CCOCC2)nc2cc(Nc3ncc(F)c(Nc4ccc5c(n4)NC(=O)C(C)(C)O5)n3)ccc21 | < 10 µM
CN1C(=O)C(C)(C)Oc2ccc(N(C)c3nc(Cl)ncc3F)nc21 | < 10 µM

// next entry
// query IC50 value for entry CN(C)c1ncc(F)c(N(C)c2ccc3c(c2)OCCO3)n1
> 10 µM

These measurements were taken from patent US20220073536A1.
